Readout Label: melting point

Past entries and their recorded results:
// query What melting point value was documented for this compound, O=C1O/C(=C\c2ccnc(Br)c2)C(c2ccc(F)cc2)=C1Cl ?
// result 150.3 to 152.8 °C

// query What melting point value was documented for this compound, O=C1O/C(=C\c2ccc(O)c(Br)c2)C(c2ccc(O)c(Cl)c2)=C1Cl ?
// result 210 to 213 °C (dec.)

// query What melting point value was documented for this compound, COc1ccc(Cl)cc1C1=C(Cl)C(=O)O/C1=C\c1ccc2c(c1)OCO2 ?
// result 134.9 to 136.2 °C

Give melting point for all compounds that follow.
1. O=C1O/C(=C\c2ccc(F)cc2Cl)C(c2ccccc2)=C1Cl
2. O=C1O/C(=C\c2ccc(-c3ccccc3)s2)C(c2ccc(F)cc2)=C1Cl

// result
1. 145.3 to 147 °C
2. 218.3 to 219.8 °C (dec.)

* * *

# Tested on: photosynthetic electron transport chain in isolated spinach thylakoids
# Assay Details: Hill reaction: light-dependent ferricyanide reduction in isolated spinach thylakoids (basal)
# Assay type: biochemical, spinach (Spinacea oleracea L.)
# Assay Setup: basal conditions, 0.05–100 μM tested, triplicate, read-out: IC50, inhibition by 50% of the light-dependent ferricyanide reduction
Readout Label: IC50 (µM)
One number for each entry, in µM.

// query Fill in the recorded IC50 for this compound, with photosynthetic electron transport chain in isolated spinach thylakoids as test system: CN(C)C(=O)Nc1ccc(Cl)c(Cl)c1 [Diuron, reference compound]
// result 0.27

// query Fill in the recorded IC50 for this compound, with photosynthetic electron transport chain in isolated spinach thylakoids as test system: O=C1O/C(=C\c2ccc(O)c(Br)c2)C(c2cc(Br)c(O)c(Br)c2)=C1Cl [Compound 4, rubrolide O]
// result 4.37

// query Fill in the recorded IC50 for this compound, with photosynthetic electron transport chain in isolated spinach thylakoids as test system: O=C1O/C(=C\c2ccc(F)cc2Cl)C(c2ccccc2)=C1Cl
// result 35.9

// query Fill in the recorded IC50 for this compound, with photosynthetic electron transport chain in isolated spinach thylakoids as test system: O=C1O/C(=C\c2ccc(O)c(Br)c2)C(c2ccc(O)c(Br)c2)=C1Cl [Compound 3, rubrolide K]
// result 8

// query Fill in the recorded IC50 for this compound, with photosynthetic electron transport chain in isolated spinach thylakoids as test system: O=C1O/C(=C\c2cc(Br)c(O)c(Br)c2)C(c2cc(Br)c(O)c(Br)c2)=C1Cl [Compound 1, rubrolide B]
// result 8.62

Give IC50 for all compounds that follow.
1. O=C1O/C(=C\c2ccc(-c3ccccc3)s2)C(c2ccc(F)cc2)=C1Cl
2. COc1ccc(/C=C2\OC(=O)C(Cl)=C2c2ccccc2)cc1
3. O=C1O/C(=C\c2ccc(O)c(Br)c2)C(c2ccc(O)c(Cl)c2)=C1Cl

// result
266
257
4.97
